Binary classification by melting point, with 90 °C as an inclusive lower bound for Y; all other cases are N.

Examples from the recorded data:
MOLECULE | ASSIGNED LABEL
O=C(CCl)Oc1ccc([N+](=O)[O-])cc1 [4-nitrophenyl chloroacetate] | Y
Cc1cc[n+]([O-])cc1 [4-picoline n-oxide] | Y
NNC(=O)c1ccncc1 [isoniazid] | Y
Cc1ccccc1N [o-Toluidine] | N
[C-]#[N+]CS(=O)(=O)c1ccc(C)cc1 [p-toluenesulfonylmethyl isocyanide] | Y
Cc1ccc(S(=O)(=O)O)cc1 | Y
O=C(O)Cc1cccc(I)c1 | Y
COC(=O)c1ccc(C#N)cc1 [methyl 4-cyanobenzoate] | N
CCCCCCCCC(=O)OCC [ethyl nonanoate] | N
Oc1ccccc1Cl | N

Could you verify whether the entry CCCCCCCCC(C)=O shows melting point of no less than 90 °C?
N

Has CC[C@H]1OC(=O)[C@H](C)[C@@H](O[C@H]2C[C@@](C)(OC)[C@@H](O)[C@H](C)O2)C(C)[C@@H](O[C@@H]2O[C@H](C)C[C@H](N(C)C)[C@H]2O)[C@](C)(O)C[C@@H](C)CN(C)[C@H](C)[C@@H](O)[C@]1(C)O (some centres undefined) a recorded melting point greater than or equal to 90 °C?
Y

Could you please find out whether O=C(O)c1ccccc1O has melting point that meets 90 °C or exceeds it?
Y

Is melting point at least 90 °C? Consider C#CCCCCCCCCCCCCC
N
